- method notes: Chemical stability assessed as hydrolysis half life in aqueous phosphate buffer saline at pH 7.6 by HPLC analysis
- Format: physicochemical
- measurement setup: aqueous phosphate buffered saline
Reported half-life values are given for each entry in this list.

compound: Cc1cn([C@H]2C=C[C@@H](COP3(=O)OCc4cc(-c5ccc6c(c5)COP(=O)(OC[C@@H]5C=C[C@H](n7cc(C)c(=O)[nH]c7=O)O5)O6)ccc4O3)O2)c(=O)[nH]c1=O (single isomer, unassigned; form 2)
half-life: 0.7 h
--
compound: Cc1cc(-c2cc(C)c3c(c2)COP(=O)(OC[C@@H]2C=C[C@H](n4cc(C)c(=O)[nH]c4=O)O2)O3)cc2c1OP(=O)(OC[C@@H]1C=C[C@H](n3cc(C)c(=O)[nH]c3=O)O1)OC2 (some centres undefined)
half-life: 2.3 h
--
compound: Cc1cn([C@H]2C=C[C@@H](COP3(=O)OCc4cc(-c5ccc(O)c(CO)c5)ccc4O3)O2)c(=O)[nH]c1=O (some centres undefined)
half-life: 2 h
--
compound: Cc1cn([C@H]2C=C[C@@H](COP3(=O)OCc4cc(-c5cc6c(c(C(C)(C)C)c5)OP(=O)(OC[C@@H]5C=C[C@H](n7cc(C)c(=O)[nH]c7=O)O5)OC6)cc(C(C)(C)C)c4O3)O2)c(=O)[nH]c1=O (some centres undefined)
half-life: 4.1 h

====

Here the recorded t1/2 is given for each entry.
- method notes: Chemical stability assessed as hydrolysis half life in aqueous phosphate buffer saline at pH 7.6 by HPLC analysis
- Type: physicochemical
- measurement setup: buffer

compound: Cc1cn([C@H]2C=C[C@@H](COP3(=O)OCc4cc(-c5cc6c(c(C(C)(C)C)c5)OP(=O)(OC[C@@H]5C=C[C@H](n7cc(C)c(=O)[nH]c7=O)O5)OC6)cc(C(C)(C)C)c4O3)O2)c(=O)[nH]c1=O (single isomer, unassigned; form 1)
t1/2, h: 3.9
--
compound: Cc1cn([C@H]2C=C[C@@H](COP3(=O)OCc4cc(-c5ccc6c(c5)COP(=O)(OC[C@@H]5C=C[C@H](n7cc(C)c(=O)[nH]c7=O)O5)O6)ccc4O3)O2)c(=O)[nH]c1=O (stereo not given in full)
t1/2, h: 0.5
--
compound: Cc1cn([C@H]2C=C[C@@H](COP3(=O)OCc4cc(-c5cc6c(c(C(C)(C)C)c5)OP(=O)(OC[C@@H]5C=C[C@H](n7cc(C)c(=O)[nH]c7=O)O5)OC6)cc(C(C)(C)C)c4O3)O2)c(=O)[nH]c1=O (single isomer, unassigned; form 3)
t1/2, h: 4.4
--
compound: Cc1cn([C@H]2C=C[C@@H](COP3(=O)OCc4cc(-c5cc6c(c(C(C)(C)C)c5)OP(=O)(OC[C@@H]5C=C[C@H](n7cc(C)c(=O)[nH]c7=O)O5)OC6)cc(C(C)(C)C)c4O3)O2)c(=O)[nH]c1=O (single isomer, unassigned; form 2)
t1/2, h: 4.1
--
compound: Cc1cn([C@H]2C=C[C@@H](COP3(=O)OCc4cc(-c5ccc6c(c5)COP(=O)(OC[C@@H]5C=C[C@H](n7cc(C)c(=O)[nH]c7=O)O5)O6)ccc4O3)O2)c(=O)[nH]c1=O (single isomer, unassigned; form 1)
t1/2, h: 0.4

====

- method notes: Chemical stability assessed as hydrolysis half life in aqueous phosphate buffer saline at pH 7.3 by HPLC analysis
- Type: physicochemical
- measurement setup: buffer
Could you please classify the records by t1/2 using these ranges: lo: < 3 h; med: ≥ 3 h and < 5 h; hi: ≥ 5 h

molecule: Cc1cn([C@H]2C=C[C@@H](COP3(=O)OCc4cc(-c5cc6c(c(C(C)(C)C)c5)OP(=O)(OC[C@@H]5C=C[C@H](n7cc(C)c(=O)[nH]c7=O)O5)OC6)cc(C(C)(C)C)c4O3)O2)c(=O)[nH]c1=O (single isomer, unassigned; form 1)
group: med
--
molecule: Cc1cn([C@H]2C=C[C@@H](COP3(=O)OCc4cccc(-c5cccc6c5OP(=O)(OC[C@@H]5C=C[C@H](n7cc(C)c(=O)[nH]c7=O)O5)OC6)c4O3)O2)c(=O)[nH]c1=O (single isomer, unassigned; form 2)
group: hi
--
molecule: Cc1cn([C@H]2C=C[C@@H](COP3(=O)OCc4cc(-c5ccc6c(c5)COP(=O)(OC[C@@H]5C=C[C@H](n7cc(C)c(=O)[nH]c7=O)O5)O6)ccc4O3)O2)c(=O)[nH]c1=O (single isomer, unassigned; form 1)
group: lo
--
molecule: Cc1cn([C@H]2C=C[C@@H](COP3(=O)OCc4cc(-c5cc6c(c(C(C)(C)C)c5)OP(=O)(OC[C@@H]5C=C[C@H](n7cc(C)c(=O)[nH]c7=O)O5)OC6)cc(C(C)(C)C)c4O3)O2)c(=O)[nH]c1=O (single isomer, unassigned; form 2)
group: med
--
molecule: Cc1cn([C@H]2C=C[C@@H](COP3(=O)OCc4cccc(-c5cccc6c5OP(=O)(OC[C@@H]5C=C[C@H](n7cc(C)c(=O)[nH]c7=O)O5)OC6)c4O3)O2)c(=O)[nH]c1=O (single isomer, unassigned; form 1)
group: med
--
molecule: Cc1cn([C@H]2C=C[C@@H](COP3(=O)OCc4cc(-c5ccc6c(c5)COP(=O)(OC[C@@H]5C=C[C@H](n7cc(C)c(=O)[nH]c7=O)O5)O6)ccc4O3)O2)c(=O)[nH]c1=O (single isomer, unassigned; form 2)
group: med
--
molecule: Cc1cn([C@H]2C=C[C@@H](COP3(=O)OCc4cc(-c5ccc6c(c5)COP(=O)(OC[C@@H]5C=C[C@H](n7cc(C)c(=O)[nH]c7=O)O5)O6)ccc4O3)O2)c(=O)[nH]c1=O (some centres undefined)
group: lo
--
molecule: Cc1cn([C@H]2C=C[C@@H](COP3(=O)OCc4cccc(-c5cccc6c5OP(=O)(OC[C@@H]5C=C[C@H](n7cc(C)c(=O)[nH]c7=O)O5)OC6)c4O3)O2)c(=O)[nH]c1=O (some centres undefined)
group: hi
--
molecule: Cc1cn([C@H]2C=C[C@@H](COP3(=O)OCc4cc(-c5cc6c(c(C(C)(C)C)c5)OP(=O)(OC[C@@H]5C=C[C@H](n7cc(C)c(=O)[nH]c7=O)O5)OC6)cc(C(C)(C)C)c4O3)O2)c(=O)[nH]c1=O (single isomer, unassigned; form 3)
group: hi
